SYSTEM: Voltage-gated N-type calcium channel alpha-1B subunit/Amyloid beta A4 precursor protein-binding family A member 1 (Homo sapiens, UniProt Q00975+Q02410)
Sequence (Q00975 whole entry): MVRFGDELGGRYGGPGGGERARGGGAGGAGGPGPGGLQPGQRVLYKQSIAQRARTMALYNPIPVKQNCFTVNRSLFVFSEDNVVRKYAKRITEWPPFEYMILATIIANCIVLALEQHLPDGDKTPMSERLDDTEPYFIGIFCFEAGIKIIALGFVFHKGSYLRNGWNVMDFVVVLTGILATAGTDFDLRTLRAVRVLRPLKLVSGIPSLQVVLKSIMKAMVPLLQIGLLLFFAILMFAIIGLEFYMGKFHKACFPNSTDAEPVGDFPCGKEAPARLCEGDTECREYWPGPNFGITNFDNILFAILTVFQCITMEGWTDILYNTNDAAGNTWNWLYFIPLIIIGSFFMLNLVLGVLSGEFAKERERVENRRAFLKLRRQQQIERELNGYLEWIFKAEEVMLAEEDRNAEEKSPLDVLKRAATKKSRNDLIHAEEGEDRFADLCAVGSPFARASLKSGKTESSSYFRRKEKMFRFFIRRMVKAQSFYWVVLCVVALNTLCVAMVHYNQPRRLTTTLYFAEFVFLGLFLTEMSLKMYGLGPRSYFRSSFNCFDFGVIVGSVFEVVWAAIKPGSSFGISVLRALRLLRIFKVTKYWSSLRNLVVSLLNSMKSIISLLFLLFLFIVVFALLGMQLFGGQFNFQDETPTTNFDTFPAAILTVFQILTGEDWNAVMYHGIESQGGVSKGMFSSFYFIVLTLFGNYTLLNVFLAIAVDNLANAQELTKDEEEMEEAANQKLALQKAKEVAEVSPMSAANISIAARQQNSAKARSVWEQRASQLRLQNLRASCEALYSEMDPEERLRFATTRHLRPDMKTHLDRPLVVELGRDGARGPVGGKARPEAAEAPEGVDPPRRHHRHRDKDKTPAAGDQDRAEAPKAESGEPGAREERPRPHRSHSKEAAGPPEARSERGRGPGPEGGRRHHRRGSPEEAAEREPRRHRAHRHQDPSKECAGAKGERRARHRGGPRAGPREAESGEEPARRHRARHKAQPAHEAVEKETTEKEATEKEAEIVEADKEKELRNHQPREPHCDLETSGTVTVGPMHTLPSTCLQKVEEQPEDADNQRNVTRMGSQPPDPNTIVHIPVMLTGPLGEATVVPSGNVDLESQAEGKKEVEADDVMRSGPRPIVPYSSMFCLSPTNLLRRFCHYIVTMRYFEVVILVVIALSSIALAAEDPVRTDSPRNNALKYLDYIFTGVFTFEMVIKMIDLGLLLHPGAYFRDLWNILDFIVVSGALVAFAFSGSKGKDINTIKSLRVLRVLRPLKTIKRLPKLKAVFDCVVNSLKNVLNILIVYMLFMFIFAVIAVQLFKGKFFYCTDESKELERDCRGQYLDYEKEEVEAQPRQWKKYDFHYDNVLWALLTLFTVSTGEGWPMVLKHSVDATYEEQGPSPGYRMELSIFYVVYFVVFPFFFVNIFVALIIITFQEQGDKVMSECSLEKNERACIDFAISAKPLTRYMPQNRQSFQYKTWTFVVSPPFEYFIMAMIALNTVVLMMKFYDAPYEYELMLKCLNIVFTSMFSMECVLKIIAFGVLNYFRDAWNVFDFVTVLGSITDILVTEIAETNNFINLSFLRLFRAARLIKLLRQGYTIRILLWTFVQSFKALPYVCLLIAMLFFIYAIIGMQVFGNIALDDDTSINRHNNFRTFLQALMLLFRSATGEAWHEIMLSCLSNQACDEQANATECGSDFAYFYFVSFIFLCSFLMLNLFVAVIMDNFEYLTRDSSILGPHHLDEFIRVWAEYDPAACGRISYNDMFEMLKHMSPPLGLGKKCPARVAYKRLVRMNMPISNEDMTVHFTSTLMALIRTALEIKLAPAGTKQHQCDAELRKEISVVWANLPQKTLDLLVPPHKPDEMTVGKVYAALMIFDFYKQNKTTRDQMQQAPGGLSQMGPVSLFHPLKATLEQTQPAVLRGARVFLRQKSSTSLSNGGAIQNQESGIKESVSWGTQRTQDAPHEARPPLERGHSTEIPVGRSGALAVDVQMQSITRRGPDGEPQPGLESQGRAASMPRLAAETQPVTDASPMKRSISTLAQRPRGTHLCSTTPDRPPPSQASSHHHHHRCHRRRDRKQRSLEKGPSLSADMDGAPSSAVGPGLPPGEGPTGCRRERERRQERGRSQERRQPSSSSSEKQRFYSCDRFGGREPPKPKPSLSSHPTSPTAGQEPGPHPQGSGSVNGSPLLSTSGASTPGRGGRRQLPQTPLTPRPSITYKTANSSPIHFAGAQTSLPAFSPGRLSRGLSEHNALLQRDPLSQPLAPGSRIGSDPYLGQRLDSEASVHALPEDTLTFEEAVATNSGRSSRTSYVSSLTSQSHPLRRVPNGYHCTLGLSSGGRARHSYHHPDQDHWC
Sequence (Q02410 whole entry): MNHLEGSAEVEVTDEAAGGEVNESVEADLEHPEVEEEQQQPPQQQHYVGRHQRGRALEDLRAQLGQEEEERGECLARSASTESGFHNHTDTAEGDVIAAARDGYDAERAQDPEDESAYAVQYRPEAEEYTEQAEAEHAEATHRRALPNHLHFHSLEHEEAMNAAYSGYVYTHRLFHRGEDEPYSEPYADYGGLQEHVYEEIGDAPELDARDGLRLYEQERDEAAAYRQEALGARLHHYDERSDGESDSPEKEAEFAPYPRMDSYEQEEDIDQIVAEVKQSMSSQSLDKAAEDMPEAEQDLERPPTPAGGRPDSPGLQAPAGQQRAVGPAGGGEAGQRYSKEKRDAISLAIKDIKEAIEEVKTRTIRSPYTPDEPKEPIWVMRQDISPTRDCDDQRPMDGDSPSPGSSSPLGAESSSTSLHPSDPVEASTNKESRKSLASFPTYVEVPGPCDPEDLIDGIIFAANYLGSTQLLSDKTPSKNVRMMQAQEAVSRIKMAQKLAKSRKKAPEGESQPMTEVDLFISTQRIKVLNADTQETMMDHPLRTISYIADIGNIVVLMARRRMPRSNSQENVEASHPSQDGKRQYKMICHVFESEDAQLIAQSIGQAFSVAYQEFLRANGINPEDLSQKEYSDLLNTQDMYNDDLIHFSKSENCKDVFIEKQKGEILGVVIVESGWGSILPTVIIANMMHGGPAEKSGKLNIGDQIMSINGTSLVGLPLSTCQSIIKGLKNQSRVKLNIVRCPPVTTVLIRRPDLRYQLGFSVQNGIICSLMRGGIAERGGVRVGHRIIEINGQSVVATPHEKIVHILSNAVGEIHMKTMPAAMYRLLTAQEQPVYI
Format: protein assay
The source made the active and inactive calls.
Please reply with one of these outcomes: YES = active, NO = inactive

Would you please look over these solved cases?
In [3]: df
Out[3]:
                                   compound  answer_label
0  COc1ccc(/C=C2\SC(=S)N(CC(=O)NNC(=O)c3ccncc3)C2=O)cc1            NO
1  C/C=C/C=C\C(=O)Nc1cccc(C2=NOC3(C2)C[C@H](C(N)=O)N(C(=O)/C=C/C)C3)c1 (some centres undefined)           YES
2  COC/C=C/C1=CC2=CC(=O)C(C)(OC(=O)c3cnc4ccccc4n3)C(=O)C2=CN1c1ccc(CO)cc1 (centres undefined)           YES

API: the following record is the query input.
Lookup: Entry Cc1cccc(NC(=S)NC2CCCCC2)n1 : call = ?
Found: NO
